test system: Staphylococcus aureus 209P; assay: in vitro antibacterial activity (MIC); assay type: cell-based; conditions: collection strain, read-out: MIC (minimal inhibitory concentration)
measured-quantity: MIC (µg/mL)
Report as a plain number; the unit µg/mL is understood.

- CC(=O)OCOC(=O)C1=C(COC(C)=O)S[C@@H]2CC(=O)N12 [FCE/20077/B40/341]: 0.39
- CC(=O)OCOC(=O)C1=C(CSc2nnnn2C)S[C@@H]2CC(=O)N12 [Compound A]: 0.39
- CO[C@@]1(NC(=O)Cc2cccs2)C(=O)N2C(C(=O)O)=C(COC(N)=O)CS[C@@H]21 [Cefoxitin]: 0.78

With those in mind, consider the next compound.
IN: Report value: MIC, system: Staphylococcus aureus 209P, compound: CC(=O)OCC1=C(C(=O)O)N2C(=O)C(C(C)O)[C@H]2S1 (stereo partly drawn) [Example 387]
OUT: 0.095
